Molecular target: the molecule itself
Assay: SEC + cross-linking; 250 uL of 2 mg/mL protein on Superose 6 Increase 10/300 GL in 5 mM HEPES pH 8.0, 0.5 mM EGTA, 2 mM DTT; samples from each peak cross-linked with 0.024% glutaraldehyde at 30 °C for 60 min, SDS-PAGE in 12.5% gel
Listing: stoichiometry N of selected proteins
Write no unit; give the number alone.

| Protein | stoichiometry N |
| --- | --- |
| NFL_(1B+2) (neurofilament light chain protein, coils 1B and 2, Ser133-Glu396) (domain or fragment, human, UniProt P07196 133-396, looked up, neurofilament light chain protein (NFL), human, product of the NEFL gene, UniProt P07196, coils 1B and 2, residues Ser133-Glu396; The monomer mass used for DSC is 30.4 kDa; source: E. coli C41, inclusion bodies solubilised in 8 M urea, purified (HisTrap HP), renatured by dialysis) SRFRALYEQEIRDLRLAAEDATNEKQALQGEREGLEETLRNLQARYEEEVLSREDAEGRLMEARKGADEAALARAELEKRIDSLMDEISFLKKVHEEEIAELQAQIQYAQISVEMDVTKPDLSAALKDIRAQYEKLAAKNMQNAEEWFKSRFTVLTESAAKNTDAVRAAKDEVSESRRLLKAKTLEIEACRGMNEALEKQLQELEDKQNADISAMQDTINKLENELRTTKSEMARYLKEYQDLLNVKMALDIEIAAYRKLLEGE | 4 |
| NFLROD (neurofilament light chain protein rod domain, coils 1A, 1B and 2, Ser80-Glu396) (domain or fragment, human, UniProt P07196 80-396, looked up, neurofilament light chain protein (NFL), human, product of the NEFL gene, UniProt P07196, rod domain (coils 1A, 1B and 2), residues Ser80-Glu396; The monomer mass used for DSC is 36.6 kDa; also called NFL rod domain; full rod domain (1A+1B+2); source: E. coli C41, inclusion bodies solubilised in 8 M urea, purified (HisTrap HP), renatured by dialysis) SNDLKSIRTQEKAQLQDLNDRFASFIERVHELEQQNKVLEAELLVLRQKHSEPSRFRALYEQEIRDLRLAAEDATNEKQALQGEREGLEETLRNLQARYEEEVLSREDAEGRLMEARKGADEAALARAELEKRIDSLMDEISFLKKVHEEEIAELQAQIQYAQISVEMDVTKPDLSAALKDIRAQYEKLAAKNMQNAEEWFKSRFTVLTESAAKNTDAVRAAKDEVSESRRLLKAKTLEIEACRGMNEALEKQLQELEDKQNADISAMQDTINKLENELRTTKSEMARYLKEYQDLLNVKMALDIEIAAYRKLLEGE | 4 |

In the following, a different protein is considered.
In plain terms, NFL2 (neurofilament light chain protein, coil 2, Val249-Glu396) (domain or fragment, human, UniProt P07196 249-396, looked up, neurofilament light chain protein (NFL), human, product of the NEFL gene, UniProt P07196, coil 2, residues Val249-Glu396; The monomer mass used for DSC is 16.9 kDa; also called NFL coil 2; source: E. coli C41, inclusion bodies solubilised in 8 M urea, purified (HisTrap HP), renatured by dialysis) VTKPDLSAALKDIRAQYEKLAAKNMQNAEEWFKSRFTVLTESAAKNTDAVRAAKDEVSESRRLLKAKTLEIEACRGMNEALEKQLQELEDKQNADISAMQDTINKLENELRTTKSEMARYLKEYQDLLNVKMALDIEIAAYRKLLEGE has a documented stoichiometry N of 2
